Reference source: patent US20250368753A1

Each record here notes measured Relative Binding to PCSK9 Measured by DELIFA Immunoassay.
measurementTarget: proprotein convertase subtilisin/kexin type 9 (PCSK9) (human) (UniProt Q8NBP7)
runDescription: DELFIA immunoassay (PerkinElmer Cat. #1244-330), full-length IgG on PCSK9
Give the value as a plain number.

Query: Consider the binder AB-4 (antibody, V domains shown) VH: QVQLVQSGAEVKKPGASVKVSCKASGYTFTSYYMHWVRQAPGQGLEWMGEIRPSGGSTNYNEKFKSRVTMTRDTSTSTVYMELSSLRSEDTAVYYCARDRPLYSMDVWGQGTTVTVSS VL: DIQMTQSPSSLSASVGDRVTITCRASQGISSALAWYQQKPGKAPKLLIYSASYRYTGVPSRFSGSGSGTDFTFTISSLQPEDIATYYCQQHYSSSWTFGQGTKLEIK and give its measured Relative Binding to PCSK9 Measured by DELIFA Immunoassay.
Reply: 2.9

Query: Which measured Relative Binding to PCSK9 Measured by DELIFA Immunoassay value corresponds to AB-8 (antibody, V domains shown) VH: QVQLVQSGAEVKKPGASVKVSCKASGYTFTSYYMHWVRQAPGQGLEWMGEILPSGGRTNYNEKFKSRVTMTRDTSTSTVYMELSSLRSEDTAVYYCARERPLYAMDIWGQGTTVTVSS VL: DIQMTQSPSSLSASVGDRVTITCRASQGISSALAWYQQKPGKAPKLLIYSASYRYTGVPSRFSGSGSGTDFTFTISSLQPEDIATYYCQQRYSTWRTFGQGTKLEIK ?
Reply: 2.9

Query: // query Relative Binding to PCSK9 Measured by DELIFA Immunoassay value for entry AB-2 (antibody, V domains shown) VH: QVQLVQSGAEVKKPGASVKVSCKASGYTFTSYYMHWVRQAPGQGLEWMGWIEPFGGRTNYNEKFKSRVTMTRDTSTSTVYMELSSLRSEDTAVYYCARERPLYAMDVWGQGTTVTVSS VL: DIQMTQSPSSLSASVGDRVTITCRASQGISGALAWYQQKPGKAPKLLIYSASYRYTGVPSRFSGSGSGTDFTFTISSLQPEDIATYYCQQRYSLSRTFGQGTKLEIK
Reply: 3.1
